All figures here come from patent US11339171B2.

What follows is a record of pIC50 for MDM2 (Homo sapiens, UniProt Q00987).
Please report pIC50 as the negative decimal logarithm of the molar concentration, giving only the number.

Known results for compounds:
INSERT INTO results (compound, experimental_system, observed_measurement) VALUES
  ('COc1ccc(C(=O)N(C)C)cc1-c1nc2c(n1C(C)C)[C@@]1(C(=O)Nc3cc(Cl)ccc31)N(c1cc(Cl)ccc1C)C2=O [Example S-22]', 'MDM2 (Homo sapiens, UniProt Q00987)', 8.96),
  ('CNC(=O)c1ccc(OC)c(-c2nc3c(n2C(C)C)[C@]2(C(=O)Nc4cc(Cl)ccc42)N(c2cc(Cl)ccc2C)C3=O)c1 [Example R-21]', 'MDM2 (Homo sapiens, UniProt Q00987)', 6.65);

Lookup result for COc1cc(N(C)C)ccc1-c1nc2c(n1C(C)C)[C@@]1(C(=O)Nc3cc(Cl)ccc31)N(c1cccc(Cl)c1)C2=O [Example S-104] ; measured pIC50: 8.65

pIC50 reading for COc1cc(N(C)C)ncc1-c1nc2c(n1C(C)C)[C@]1(C(=O)Nc3cc(Cl)ccc31)N(c1cc(Cl)cnc1C)C2=O [Example R-155] : 7.02

The compound identified as CCN(CC)c1ccc(-c2nc3c(n2C(C)C)[C@]2(C(=O)Nc4cc(Cl)ccc42)N(c2cc(Cl)ccc2C)C3=O)c(OC)c1 [Example R-105] registered its pIC50 at 6.46

Documented pIC50 of COc1cnccc1-c1nc2c(n1C(C)C)[C@@]1(C(=O)Nc3cc(Cl)ccc31)N(c1cc(Cl)ccc1C)C2=O [Example S-10] : 8.56
